Test system: Human papillomavirus type 1a E7 protein (residues 1-88)
Test Summary: HPV1a E7 small-molecule binders, primary screen, biochemical, small-molecule microarray, residues 1-88, 635 nm (AID 1129)
Condition Info: small-molecule microarray binding, fluorescence 635 nm; higher = more signal
Readout Type: composite z-score
Just the number, please, no unit attached.

In the examples that follow, each entry is paired with its recorded composite z-score.
Molecule: C[C@H]1COC(=O)[C@@H]2CCCN2C(=O)[C@@H](C)COC(=O)[C@H](Cc2ccccc2)NC1=O
composite z-score: 0.767
--
Molecule: O=C1C[C@@H](O)[C@@H](O)[C@@H]2[C@@H]3C(=O)N(Cc4ccc5c(c4)OCO5)C(=O)[C@@H]3CC[C@H]12
composite z-score: 0.923
--
Molecule: CC(CCC(=O)OC[C@H]1O[C@H](C#Cc2ccccc2)C=C[C@@H]1Oc1ccc(C)cc1)=NO[C@H](C)c1cn([C@H](CO)Cc2ccccc2)nn1
composite z-score: 0.921
--
Molecule: CC(CCN1CCCc2nc(C)c(C)cc21)=NOC(C)CN1CCCCc2nc(C)c(C)cc21 (configuration not stated)
composite z-score: 1.2
--
Molecule: CO[C@H]1COC(=O)[C@@H](C)COC(=O)[C@H](C)NC(=O)CC=C[C@H]1C
composite z-score: -0.764
--
Molecule: CC(C)C[C@H](NC(=O)CCC1CC(OC(=O)NCc2cccc3ccccc23)CC2(CCCC(COC(=O)NCc3ccccc3)O2)O1)C(=O)NCC(c1ccccc1)c1ccccc1 (some centres not stated)
composite z-score: 1.13

Turning to the following molecule.
### Prompt Using the record for CCOC(=O)[C@H](CC(C)C)NC(=O)CCC1CC(OC(=O)NCc2cccc3ccccc23)CC2(CCCC(COC(=O)NCCCN3CCCC3=O)O2)O1 (some centres not stated) , report its composite z-score.
### Response 1.06

----------
System: Neuregulin-1 EGF-like domain
Test Summary: binders of neuregulin-1 EGF-like domain, primary screen, biochemical, small-molecule microarray, 635 nm fluorescence (AID 1081);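 further: binding of the protein to compounds printed on small-molecule microarray slides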
Condition Info: small-molecule microarray binding, higher = more signal
Would you please tag the item YES when its composite z-score is 0.4 or above, and NO when it is below?

Field: example entries. Status: answers known.
Compound: C#CCCCON=C1C[C@@H](O)[C@@H](O)[C@@H]2[C@@H]3C(=O)N(C(C)(C)C)C(=O)[C@@H]3CC[C@H]12
Target Under Test: Neuregulin-1 EGF-like domain
Answer Label: NO
--
Compound: Cc1ccc(S(=O)(=O)N[C@@H]2COC(=O)[C@@H](C)COC(=O)CC=C[C@H]2C)cc1
Target Under Test: Neuregulin-1 EGF-like domain
Answer Label: NO
--
Compound: CCCNC(=O)OC[C@H]1O[C@H](CCON=Cc2ccc(C(=O)N3[C@H](c4ccc(C)cc4)[C@@H](C)CC[C@H]3C(=O)OC)cc2)C=C[C@@H]1Oc1ccc(OC)cc1
Target Under Test: Neuregulin-1 EGF-like domain
Answer Label: YES
--
Compound: CC(C)CON=C1C[C@@H](O)[C@@H](O)[C@@H]2[C@@H]3C(=O)N(C4CCCCC4)C(=O)[C@@H]3CC[C@@H]12
Target Under Test: Neuregulin-1 EGF-like domain
Answer Label: NO
--
Compound: CC(C)=CCCC(C)=CCON=C1C[C@@H](O)[C@@H](O)[C@@H]2[C@@H]3C(=O)N(c4ccc(F)cc4F)C(=O)[C@@H]3CC[C@H]12
Target Under Test: Neuregulin-1 EGF-like domain
Answer Label: YES

### Prompt Please tell me: is the compound `CCOC(=O)CCN1C(=O)[C@H]2[C@H]3[C@H](O)[C@H](O)CC(=NNC(=O)OCc4ccccc4)[C@@H]3CC[C@H]2C1=O` at or over 0.4 in terms of composite z-score?
### Response YES

### Prompt Next record, please: `CO[C@@H]1COC(=O)[C@H](CCSC)NC(=O)CC=C[C@@H](C)COC(=O)CCC[C@H]1C`
### Response YES

### Prompt Next record, please: CCOC(=O)[C@H](CC(C)C)NC(=O)CCC1CC(OC(=O)NCCc2ccc(F)cc2)CC2(CCCC(COC(=O)NCCc3ccccc3OC)O2)O1 (some centres undefined)
### Response YES

### Prompt Next record, please: `COC(=O)CC=C[C@@H](C)[C@@H](C=NO[C@H](C)c1cn([C@@H]2COC[C@H]2O)nn1)NS(=O)(=O)c1ccc(C)cc1`
### Response YES

### Prompt Next record, please: `C=CC[C@@H]1C=C[C@H](ON=C(C)CCC(=O)OC[C@H]2O[C@H](c3ccccc3)C=C[C@@H]2Oc2ccc(OC)cc2)[C@@H](CO)O1`
### Response NO

### Prompt Next record, please: `CC(C)=CCCC(C)=CCON=C1C[C@@H](O)[C@@H](O)[C@@H]2[C@@H]3C(=O)N(c4cccc(Oc5ccccc5)c4)C(=O)[C@@H]3CC[C@@H]12`
### Response YES

### Prompt Next record, please: `COC(=O)[C@H]1O[C@@H](c2c(OC)c(OC)c(C)c(OC)c2OC)[C@H](C)[C@@H](O)[C@H]1C`
### Response YES

### Prompt Next record, please: `CCO[C@H](c1cc(OC)cc([N+](=O)[O-])c1OC)[C@H](C)C=CCC(=O)OC`
### Response NO

### Prompt Next record, please: O=C1OCCC=C1C(O)CCc1ccccc1 (centres undefined)
### Response NO

### Prompt Next record, please: COC(=O)[C@H](C)NC(=O)CCC1CC(OC(=O)NCc2ccc3c(c2)OCO3)CC2(CCCC(COC(=O)NCc3cccc(C(F)(F)F)c3)O2)O1 (some centres undefined)
### Response YES

### Prompt Next record, please: CCOC(=O)[C@H](CC(C)C)NC(=O)CCC1CC(OC(=O)NCCc2ccc(F)cc2)CC2(CCCC(COC(=O)NCC3CCCCC3)O2)O1 (some centres undefined)
### Response YES

### Prompt Next record, please: `C[C@@H]1CC[C@H]2C(=O)O[C@@H](COc3ccc(C(C)(C)C)cc3)CN2[C@@H]1c1ccc(Br)cc1`
### Response NO

### Prompt Next record, please: `CO[C@H]1COC(=O)[C@H](C)NC(=O)CC=C[C@@H](C)[C@H](OC)COC(=O)[C@@H](OCc2ccccc2)C=C[C@@H]1C`
### Response NO

### Prompt Next record, please: CCOC(=O)[C@H](CC(C)C)NC(=O)CCC1CC(OC(=O)NCc2ccc3c(c2)OCO3)CC2(CCCC(COC(=O)NCC(c3ccccc3)c3ccccc3)O2)O1 (some centres undefined)
### Response YES

### Prompt Next record, please: CCOC(=O)[C@H](CC(C)C)NC(=O)CCC1CC(OC(=O)NCc2cccc3ccccc23)CC2(CCCC(COC(=O)NCCCN3CCCC3=O)O2)O1 (some centres undefined)
### Response YES

### Prompt Next record, please: `CON=CC[C@@H]1C=C[C@H](OC(C)=O)[C@@H](COC(C)=O)O1`
### Response NO

### Prompt Next record, please: `Cn1c(=O)n2n(c1=O)[C@H]1[C@H](O)[C@@H]3O[C@@H]3C(=O)[C@H]1CC2`
### Response YES

### Prompt Next record, please: `COC(=O)CC=C[C@@H](C)[C@@H](C=NO[C@H](C)c1cn([C@H](CO)Cc2ccccc2)nn1)NS(=O)(=O)c1ccc(C)cc1`
### Response NO
